drug sensitivity score values for the compounds below.
test system: YT (IL-2 2.5 ng/mL); experiment: drug sensitivity score (DSS) (DSS units); higher = more sensitive; extreme values may be limits of the assay; conditions: 72 h
Measure Name: drug sensitivity score

INSERT INTO results (compound, result) VALUES
  ('CCN(CC)C(=S)SSC(=S)N(CC)CC [Disulfiram] (max concentration tested 100000 nM)', 6.46),
  ('CS(=O)(=O)CCNCc1ccc(-c2ccc3ncnc(Nc4ccc(OCc5cccc(F)c5)c(Cl)c4)c3c2)o1 [Lapatinib] (max concentration tested 1000 nM)', 0.63),
  ('C[C@@H]1C=C2C(=O)O[C@@H]3CC[C@H](C1)[C@]23O [Galiellalactone] (max concentration tested 25000 nM)', 4.18);
